Answer each item with its documented pIC50.
Target: ATP-binding cassette sub-family C member 4 (Homo sapiens, UniProt O15439)
Sequence (O15439 whole entry): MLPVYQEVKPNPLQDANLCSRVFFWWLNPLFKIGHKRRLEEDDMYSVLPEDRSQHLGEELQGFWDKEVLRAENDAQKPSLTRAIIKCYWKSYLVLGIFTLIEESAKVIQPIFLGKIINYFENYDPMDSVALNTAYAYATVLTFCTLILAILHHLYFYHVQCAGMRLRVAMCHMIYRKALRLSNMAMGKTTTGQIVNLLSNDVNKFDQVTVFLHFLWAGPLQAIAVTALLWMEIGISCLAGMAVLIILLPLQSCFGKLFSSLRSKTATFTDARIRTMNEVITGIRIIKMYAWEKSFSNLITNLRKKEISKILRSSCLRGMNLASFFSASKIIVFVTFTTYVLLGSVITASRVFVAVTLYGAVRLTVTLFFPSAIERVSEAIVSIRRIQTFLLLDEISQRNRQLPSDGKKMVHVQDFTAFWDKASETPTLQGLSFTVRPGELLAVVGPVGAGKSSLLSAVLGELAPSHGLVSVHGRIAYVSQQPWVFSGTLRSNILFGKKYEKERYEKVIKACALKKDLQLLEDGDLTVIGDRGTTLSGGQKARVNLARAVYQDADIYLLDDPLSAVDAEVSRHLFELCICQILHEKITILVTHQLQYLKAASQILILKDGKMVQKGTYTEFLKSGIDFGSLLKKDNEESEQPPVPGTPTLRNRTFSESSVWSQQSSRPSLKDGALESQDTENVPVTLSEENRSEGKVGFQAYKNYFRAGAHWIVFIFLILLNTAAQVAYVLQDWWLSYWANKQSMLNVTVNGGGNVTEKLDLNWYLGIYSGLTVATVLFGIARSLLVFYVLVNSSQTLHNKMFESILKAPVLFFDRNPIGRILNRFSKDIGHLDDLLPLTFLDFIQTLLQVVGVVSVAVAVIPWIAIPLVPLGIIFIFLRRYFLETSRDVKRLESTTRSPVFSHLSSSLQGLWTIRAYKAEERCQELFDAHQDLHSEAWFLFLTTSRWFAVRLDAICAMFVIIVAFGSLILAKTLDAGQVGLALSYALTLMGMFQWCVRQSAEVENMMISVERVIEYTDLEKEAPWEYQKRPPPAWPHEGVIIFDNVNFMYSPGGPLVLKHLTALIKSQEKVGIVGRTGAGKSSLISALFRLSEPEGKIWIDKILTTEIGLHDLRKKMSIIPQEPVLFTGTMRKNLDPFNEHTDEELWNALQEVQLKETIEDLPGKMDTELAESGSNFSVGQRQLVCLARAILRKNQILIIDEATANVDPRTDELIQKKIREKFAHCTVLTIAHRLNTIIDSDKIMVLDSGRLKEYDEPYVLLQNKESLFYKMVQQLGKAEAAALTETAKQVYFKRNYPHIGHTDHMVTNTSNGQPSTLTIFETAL
Assay: TP_TRANSPORTER: inhibition of E217betaG uptake in membrane vesicles from MRP4-expressing HEK-293 cells
Assay type: functional, cell membranes, HEK293, Membrane vesicle
Schema: pIC50 number; meaning minus log10 of the concentration expressed in molar units.

Exercise: Return pIC50 (reported value) for this molecule: C[C@H](CCC(=O)NCC(=O)O)[C@H]1CC[C@H]2[C@@H]3[C@H](O)C[C@@H]4C[C@H](O)CC[C@]4(C)[C@H]3C[C@H](O)[C@]12C
Solution: 3.40

Exercise: Return pIC50 (reported value) for this molecule: C[C@H](CCC(=O)NCCS(=O)(=O)O)[C@H]1CC[C@H]2[C@@H]3[C@H](O)C[C@@H]4C[C@H](O)CC[C@]4(C)[C@H]3CC[C@]12C [TAUROCHENODEOXYCHOLATE]
Solution: 4.26

Exercise: Return pIC50 (reported value) for this molecule: C[C@H](CCC(=O)NCC(=O)O)[C@H]1CC[C@H]2[C@@H]3CC[C@@H]4C[C@H](OS(=O)(=O)O)CC[C@]4(C)[C@H]3CC[C@]12C
Solution: 5.00

Exercise: Return pIC50 (reported value) for this molecule: C[C@H](CCC(=O)NCCS(=O)(=O)O)[C@H]1CC[C@H]2[C@@H]3CC[C@@H]4C[C@H](O)CC[C@]4(C)[C@H]3C[C@H](O)[C@]12C
Solution: 4.22

Exercise: Return pIC50 (reported value) for this molecule: C[C@H](CCC(=O)NCCS(=O)(=O)O)[C@H]1CC[C@H]2[C@@H]3CC[C@@H]4C[C@H](O)CC[C@]4(C)[C@H]3CC[C@]12C
Solution: 4.70

Exercise: Return pIC50 (reported value) for this molecule: C[C@H](CCC(=O)O)[C@H]1CC[C@H]2[C@@H]3CC[C@@H]4C[C@H](OS(=O)(=O)O)CC[C@]4(C)[C@H]3CC[C@]12C
Solution: 5.00

Exercise: Return pIC50 (reported value) for this molecule: C[C@H](CCC(=O)NCCS(=O)(=O)O)C1CC[C@H]2[C@@H]3CC[C@@H]4C[C@H](OS(=O)(=O)O)CC[C@]4(C)[C@H]3CC[C@]12C (some centres not stated)
Solution: 5.00

---

Target: ATP-binding cassette sub-family C member 4 (Homo sapiens, UniProt O15439)
Sequence (O15439 whole entry): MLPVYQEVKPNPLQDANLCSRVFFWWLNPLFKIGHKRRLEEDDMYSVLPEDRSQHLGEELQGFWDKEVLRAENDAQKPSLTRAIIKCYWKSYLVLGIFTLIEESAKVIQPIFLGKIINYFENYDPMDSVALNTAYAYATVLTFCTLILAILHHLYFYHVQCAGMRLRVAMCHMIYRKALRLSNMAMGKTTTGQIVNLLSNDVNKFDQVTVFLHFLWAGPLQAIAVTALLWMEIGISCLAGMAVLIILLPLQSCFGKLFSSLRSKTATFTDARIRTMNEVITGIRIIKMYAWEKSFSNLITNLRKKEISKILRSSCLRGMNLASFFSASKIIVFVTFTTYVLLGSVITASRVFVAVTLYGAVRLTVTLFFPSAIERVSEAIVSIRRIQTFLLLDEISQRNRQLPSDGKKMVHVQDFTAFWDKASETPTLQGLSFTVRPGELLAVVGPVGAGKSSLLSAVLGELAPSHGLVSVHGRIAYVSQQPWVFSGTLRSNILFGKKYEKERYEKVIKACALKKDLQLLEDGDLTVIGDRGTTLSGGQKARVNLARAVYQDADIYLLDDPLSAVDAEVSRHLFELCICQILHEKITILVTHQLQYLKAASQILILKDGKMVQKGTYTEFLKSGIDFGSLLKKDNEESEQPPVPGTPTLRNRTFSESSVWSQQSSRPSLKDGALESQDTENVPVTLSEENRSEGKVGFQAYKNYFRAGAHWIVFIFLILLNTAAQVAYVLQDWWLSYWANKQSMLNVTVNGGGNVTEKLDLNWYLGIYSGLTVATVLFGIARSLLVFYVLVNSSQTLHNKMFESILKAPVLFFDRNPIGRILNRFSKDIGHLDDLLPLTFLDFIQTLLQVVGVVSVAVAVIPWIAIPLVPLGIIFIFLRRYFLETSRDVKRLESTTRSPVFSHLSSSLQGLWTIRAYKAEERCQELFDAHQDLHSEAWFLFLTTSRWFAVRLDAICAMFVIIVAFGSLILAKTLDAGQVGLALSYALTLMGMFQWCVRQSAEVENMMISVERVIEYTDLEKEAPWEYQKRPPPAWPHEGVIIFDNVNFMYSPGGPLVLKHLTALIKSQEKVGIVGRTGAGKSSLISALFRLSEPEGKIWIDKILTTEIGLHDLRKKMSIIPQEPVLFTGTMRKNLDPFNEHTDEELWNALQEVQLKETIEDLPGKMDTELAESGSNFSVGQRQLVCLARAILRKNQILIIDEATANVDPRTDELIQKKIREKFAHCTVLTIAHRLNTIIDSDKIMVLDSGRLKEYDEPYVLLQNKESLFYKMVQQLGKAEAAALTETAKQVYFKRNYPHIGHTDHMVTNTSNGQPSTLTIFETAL
Assay: TP_TRANSPORTER: inhibition of DHEAS in membrane vesicles from MRP4-expressing Sf9 cells
Type: functional, cell membranes, Membrane vesicle
Measure name: log10 IC50 (log10 of the value in µM)
Lab note - IC50 converted to log10 from values in µM.

Exercise: Return log10 IC50 (reported value) for this compound: C[C@]12CC[C@H](O[C@@H]3O[C@H](C(=O)O)[C@@H](O)[C@H](O)[C@H]3O)CC1=CC[C@@H]1[C@@H]2CC[C@]2(C)C(=O)CC[C@@H]12
Solution: 1.90

Exercise: Return log10 IC50 (reported value) for this compound: C[C@]12CC[C@@H]3c4ccc(O[C@@H]5O[C@H](C(=O)O)[C@@H](O)[C@H](O)[C@H]5O)cc4CC[C@H]3[C@@H]1CC[C@@H]2O
Solution: 1.90

Exercise: Return log10 IC50 (reported value) for this compound: C[C@]12CC[C@@H]3c4ccc(OS(=O)(=O)O)cc4CC[C@H]3[C@@H]1CCC2=O
Solution: 1.98

Exercise: Return log10 IC50 (reported value) for this compound: C[C@]12CC[C@@H]3c4ccc(OS(=O)(=O)O)cc4CC[C@H]3[C@@H]1CC[C@H]2O
Solution: 1.85

Exercise: Return log10 IC50 (reported value) for this compound: C[C@]12CC[C@@H]3c4ccc(OS(=O)(=O)O)cc4CC[C@H]3[C@@H]1CC[C@@H]2OS(=O)(=O)O [ESTRADIOL DISULFATE]
Solution: -0.70

Exercise: Return log10 IC50 (reported value) for this compound: C[C@]12CC[C@@H]3c4ccc(O)cc4CC[C@H]3[C@@H]1CC[C@@H]2O[C@@H]1O[C@H](C(=O)O)[C@@H](O)[C@H](O)[C@H]1O [ESTRADIOL 17B GLUCURONIDE]
Solution: 1.48
